These measurements were taken from ChEMBL document CHEMBL4265879.

Target: Vasopressin V1b receptor (Homo sapiens, UniProt P47901)
Sequence (P47901 whole entry): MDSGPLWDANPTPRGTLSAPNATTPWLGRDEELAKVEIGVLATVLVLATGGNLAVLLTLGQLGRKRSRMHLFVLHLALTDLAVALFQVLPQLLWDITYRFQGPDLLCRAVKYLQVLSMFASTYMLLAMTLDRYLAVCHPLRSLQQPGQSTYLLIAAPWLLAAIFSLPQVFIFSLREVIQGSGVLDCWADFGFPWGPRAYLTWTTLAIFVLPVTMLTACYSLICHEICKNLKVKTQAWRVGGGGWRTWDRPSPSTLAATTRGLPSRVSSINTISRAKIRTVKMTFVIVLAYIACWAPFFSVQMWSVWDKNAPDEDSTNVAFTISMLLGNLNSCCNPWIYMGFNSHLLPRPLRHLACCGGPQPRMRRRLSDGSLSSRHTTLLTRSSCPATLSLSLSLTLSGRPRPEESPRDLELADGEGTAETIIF
ASSAY METRIC: Ki (nM)

Observe how each entry below is paired with its result.
COMPOUND	READOUT UNITS	Ki
CCOc1nc(Cl)ccc1C1(N2CCN(c3ccnc(C)c3)CC2)C(=O)N(S(=O)(=O)c2ccc(OC)cn2)c2ccc(C#N)cc21 (racemic)	nM	1.3
CCOc1nc(Cl)ccc1C1(N2CCN(c3ccncc3)CC2)C(=O)N(S(=O)(=O)c2ccc(OC)cn2)c2ccc(C#N)cc21 (centres undefined)	nM	1.1
CCOc1ccc(OC)cc1C1(N2CCN(c3ccncc3)CC2)C(=O)N(S(=O)(=O)c2ccc(F)c3cccnc23)c2ccc(C#N)cc21 (centres undefined)	nM	9
CCOc1ccc(OC)cc1C1(N2CCN(c3ccncc3)CC2)C(=O)N(S(=O)(=O)c2ccc(OC)cn2)c2ccc(C#N)cc21 (centres undefined)	nM	2
COc1ccc(S(=O)(=O)N2C(=O)C(c3cccnc3OC)(N3CCN(c4cccnc4)CC3)c3cc(Cl)ccc32)c(OC)c1 (centres undefined)	nM	45

(I) COc1ccccc1C1(N2CCN(c3cccnc3)CC2)C(=O)N(S(=O)(=O)c2cccc3cccnc23)c2ccc(Cl)cc21 (centres undefined)
(II) CCOc1nc(Cl)ccc1C1(N2CCN(c3ccncc3)CC2)C(=O)N(S(=O)(=O)c2ccc(OC)cc2OC)c2ccc(C#N)cc21 (centres undefined)
Input line: Looking at recorded values for Ki, does I or II come in lower? Mark your answer with the label of the selected entry.
Output line: I

(A) CCOc1nc(Cl)ccc1C1(N2CCN(c3ccnc(C)c3)CC2)C(=O)N(S(=O)(=O)c2ccc(OC)cn2)c2ccc(C#N)cc21 (single isomer, unassigned; (+))
(B) CCOc1ccc(OC)cc1C1(N2CCN(c3ccncc3)CC2)C(=O)N(S(=O)(=O)c2ccc(OC)cc2)c2ccc(C#N)cc21 (centres undefined)
Input line: Looking at recorded values for Ki, does A or B come in lower? Mark your answer with the label of the selected entry.
Output line: A
